These data points were gathered from patent US20210347873A1.

SYSTEM_UNDER_TEST: T1, extracellular domain of human BLyS protein (hBLyS-ECD), His-tagged, Ala134-Leu285 (human, UniProt Q9Y275 134-285)
T1 construct: Expressed in HEK293 cells and purified on a Ni column; also called immunogen
ASSAY_COMMENT: SPR (Biacore), antibody captured by anti-human Fc, hBLyS-ECD as analyte
Cut-off 300000 M⁻¹ s⁻¹ on kon, inclusive. At or above means condition met; below means condition not met.

Illustrative cases are given below, each with its answer.
>  <BINDER>
c93C6F10D3 (antibody, V domains shown) VH: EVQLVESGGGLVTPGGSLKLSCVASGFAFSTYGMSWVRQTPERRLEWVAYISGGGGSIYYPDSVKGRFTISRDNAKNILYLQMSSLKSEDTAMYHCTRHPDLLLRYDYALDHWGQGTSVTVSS VL: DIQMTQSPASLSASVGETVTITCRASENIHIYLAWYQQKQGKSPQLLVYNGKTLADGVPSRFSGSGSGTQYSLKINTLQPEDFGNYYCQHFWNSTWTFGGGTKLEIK

>  <DISCRETE_LABEL>
condition met

$$$$
>  <BINDER>
c89A2G5E7 (antibody, V domains shown) VH: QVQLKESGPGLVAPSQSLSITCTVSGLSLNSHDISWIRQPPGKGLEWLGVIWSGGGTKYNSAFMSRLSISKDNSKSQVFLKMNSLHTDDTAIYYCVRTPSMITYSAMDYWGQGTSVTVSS VL: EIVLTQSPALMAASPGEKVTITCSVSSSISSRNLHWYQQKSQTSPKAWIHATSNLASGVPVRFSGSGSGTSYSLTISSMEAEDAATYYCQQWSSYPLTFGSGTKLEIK

>  <DISCRETE_LABEL>
condition not met

$$$$

# next binder below
## Task Determine whether this binder has kon no lower than 300000 M⁻¹ s⁻¹: c67A2E1D10 (antibody, V domains shown) VH: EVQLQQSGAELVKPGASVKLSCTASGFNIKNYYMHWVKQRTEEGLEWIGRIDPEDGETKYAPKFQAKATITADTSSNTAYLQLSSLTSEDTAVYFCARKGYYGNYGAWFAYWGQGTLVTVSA VL: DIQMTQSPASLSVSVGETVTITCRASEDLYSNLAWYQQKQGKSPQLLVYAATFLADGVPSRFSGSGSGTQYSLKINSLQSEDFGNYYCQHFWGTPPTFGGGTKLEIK
## Result condition not met
